assayOverview: NCI Yeast Anticancer Drug Screen. Data for the bub3 strain (AID 167)
reportedConditions: S. cerevisiae bub3 mutant strain, at 50.0 µM, stronger effect = higher value
About 79,000 compounds went through this panel and 15% of them were active in at least one assay; those are over-represented in the sample as a whole.
measurementType: growth inhibition (%)
I only need the number, in %, no unit after it.

Check out these entries, answers already filled in.
compound	readoutUnits	growth inhibition
COc1ccc(N2C(=O)CCC2=O)cc1	%	-9.9
S=c1[nH]ncn2nc3ccccc3c12	%	-3.85
O=C(O)C(Nc1ccccc1)c1ccccc1 (stereo not drawn)	%	4.65
C=CCN(CC=C)/N=N/c1nc[nH]c1C(N)=O	%	-5.55

// query May I ask what growth inhibition has been recorded for `O=C1NNC2(C(=O)N1)c1ccccc1-c1ccccc12` ?
// result 1.65

// query May I ask what growth inhibition has been recorded for `O=S1(=O)OCOS(=O)(=O)OCO1` ?
// result -13.8

// query May I ask what growth inhibition has been recorded for CC1[C@@H]2CC=C3[C@H]4CCC5Cc6nc7c(nc6C[C@@]5(C)C4CC(=O)[C@]32CO[C@]12OC(C)(C)CC2O)CC1CC[C@@H]2C3=C[C@H]4O[C@@]5(O[C@@](C)(CO)C[C@@H]5O)C(C)[C@@]4(O)[C@]3(C)[C@@H](O)CC2[C@]1(C)C7 (stereo partly drawn) ?
// result 47

----------
assayOverview: NCI Yeast Anticancer Drug Screen. Data for the cln2 rad14 strain (AID 165);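 also: 0% = growth equal to vehicle treated cultures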
reportedConditions: S. cerevisiae cln2 rad14 strain, at 50.0 µM, stronger effect = higher value
The panel holds about 79,000 compounds, 15% with a hit somewhere; the sample as a whole holds those more often.
Measured growth inhibition accompanies every entry in the list below.
I only need the number, in %, no unit after it.

molecule	reportedValue
O=c1[nH]c(-c2ccccc2)nc(-c2ccccc2)c1Cc1cc2c(cc1O)OCC2	2.8
CC(C)CCCC(C)C1CCC2C3CCC4CC(=O)/C(=C\O)CC4(C)C3CCC12C (configuration not stated)	38.6
C=C(C)C(=O)OCC(CC)(COC(=O)C(=C)C)COC(=O)C(=C)C	-2.05
O=C(NNc1c(F)c(F)c(C(F)(F)F)c(F)c1F)c1ccccc1	-64.3
c1ccc(CSc2nn[nH]n2)cc1	-9.65

// query May I ask what growth inhibition has been recorded for `CN(CCN(C)C(=O)CCOS(C)(=O)=O)C(=O)CCOS(C)(=O)=O` ?
// result 0

// query May I ask what growth inhibition has been recorded for `COc1cc(Cl)ccc1C` ?
// result -14.3

// query May I ask what growth inhibition has been recorded for `Cc1cc(NC(=O)NC(=O)c2ccccc2N(C)C)ccc1Oc1ncc(Br)cn1` ?
// result 12.2

----------
assayOverview: NCI Yeast Anticancer Drug Screen. Data for the rad50 strain (AID 155);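 also: 0% = growth of vehicle-only cultures of the same strain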
reportedConditions: S. cerevisiae rad50 strain growth inhibition; at 50.0 µM
The panel holds about 79,000 compounds, 15% with a hit somewhere; the sample as a whole holds those more often. Calls of active or inactive are those of the source. Rule as the data show it: active = growth inhibition above about 70%; inactive = the rest.
Hi there, use one of these labels in your reply, thanks! true (1) = active, false (0) = inactive

Some solved cases for reference:
molecule	discreteLabel
O=C1CCc2c(Cl)sc(Cl)c21	false (0)
O=S(=O)(OCC1CC2CCC1CC2)c1ccc(Br)cc1 (stereo not drawn)	false (0)
C[S+]1CC2C3CC(C#N)C(C3)C2C1 (stereo not drawn)	false (0)
CC(=O)CC(=O)Nc1ccccc1[N+](=O)[O-]	false (0)
Cc1ccc(N2C(=O)CNC2=O)cc1	false (0)

// query How was `CC(C)(C)c1cc2c3c(c1)C(C(F)(F)F)(C(F)(F)F)OS3(=O)(O)OC2(C(F)(F)F)C(F)(F)F` classified in this test?
// result false (0)

// query How was `CN(C)/C=N/NC(=O)c1ccccc1N` classified in this test?
// result false (0)
